system: Arthrobacter sp. strain 1N; test: Antibiotic MIC by E-test; format: cell-based; conditions: Arthrobacter; strain 1N, E-test, 24 h; read-out: MIC threshold values for a given antibiotic

smiles.notation: CC1(C)S[C@@H]2[C@H](NC(=O)Cc3ccccc3)C(=O)N2[C@H]1C(=O)O
units.symbol: µg/mL
result.qualifier: ≥
MIC: 32

smiles.notation: CC[C@H]1OC(=O)[C@H](C)[C@@H](O[C@H]2C[C@@](C)(OC)[C@@H](O)[C@H](C)O2)[C@H](C)[C@@H](O[C@@H]2O[C@H](C)C[C@H](N(C)C)[C@H]2O)[C@](C)(O)C[C@@H](C)C(=O)[C@H](C)[C@@H](O)[C@]1(C)O
units.symbol: µg/mL
result.qualifier: =
MIC: 256

smiles.notation: [H]/N=C(/N)N[C@H]1[C@H](O)[C@@H](O)[C@H](O[C@@H]2O[C@@H](C)[C@](O)(C=O)[C@H]2O[C@@H]2O[C@@H](CO)[C@H](O)[C@@H](O)[C@@H]2NC)[C@@H](N/C(N)=N\[H])[C@@H]1O
units.symbol: µg/mL
result.qualifier: =
MIC: 48

smiles.notation: CO/N=C(\C(=O)N[C@@H]1C(=O)N2C(C(=O)O)=C(CSc3nc(=O)c(=O)[nH]n3C)CS[C@H]12)c1csc(N)n1
units.symbol: µg/mL
result.qualifier: ≥
MIC: 256

---

test system: Pseudomonas sp. strain 3G; experiment: Antibiotic MIC by E-test; type: cell-based; conditions: Pseudomonas, 24 h, read-out: MIC threshold values for a given antibiotic
Listing of entries alongside the reported MIC.

molecule: CCn1cc(C(=O)O)c(=O)c2cc(F)c(N3CCNCC3)cc21 [NX, norfloxacin]
MIC: 192 µg/mL

molecule: CC[C@H]1OC(=O)[C@H](C)[C@@H](O[C@H]2C[C@@](C)(OC)[C@@H](O)[C@H](C)O2)[C@H](C)[C@@H](O[C@@H]2O[C@H](C)C[C@H](N(C)C)[C@H]2O)[C@](C)(O)C[C@@H](C)C(=O)[C@H](C)[C@@H](O)[C@]1(C)O [E, erythromycin]
MIC: ≥ 256 µg/mL

molecule: O=C(O)c1cn(C2CC2)c2cc(N3CCNCC3)c(F)cc2c1=O [CIP, ciprofloxacin]
MIC: ≥ 32 µg/mL

molecule: [H]/N=C(/N)N[C@H]1[C@H](O)[C@@H](O)[C@H](O[C@@H]2O[C@@H](C)[C@](O)(C=O)[C@H]2O[C@@H]2O[C@@H](CO)[C@H](O)[C@@H](O)[C@@H]2NC)[C@@H](N/C(N)=N\[H])[C@@H]1O [S, streptomycin]
MIC: ≥ 1020 µg/mL

molecule: Cc1cc(NS(=O)(=O)c2ccc(N)cc2)no1 [RL, sulfamethoxazole]
MIC: ≥ 1020 µg/mL

molecule: CC1(C)S[C@@H]2[C@H](NC(=O)Cc3ccccc3)C(=O)N2[C@H]1C(=O)O [P, penicillin G]
MIC: ≥ 32 µg/mL

molecule: CN(C)[C@@H]1C(O)=C(C(N)=O)C(=O)[C@@]2(O)C(O)=C3C(=O)c4c(O)cccc4[C@@](C)(O)[C@H]3C[C@@H]12 [TE, tetracycline]
MIC: 6 µg/mL

molecule: CO/N=C(\C(=O)N[C@@H]1C(=O)N2C(C(=O)O)=C(CSc3nc(=O)c(=O)[nH]n3C)CS[C@H]12)c1csc(N)n1 [TX, ceftriaxone]
MIC: ≥ 256 µg/mL
